pKd reference
Target under test: T1, human GARP-proTGFβ1 complex (human, UniProt Q14392 18-627; P01137 30-390, limits assumed)
T1 construct: Exemplary entries; also called Hu GARP-proTGFβ1; huGARP proTGFb1
T1 sequence (Q14392 18-627 limits assumed, chain 1 of 2): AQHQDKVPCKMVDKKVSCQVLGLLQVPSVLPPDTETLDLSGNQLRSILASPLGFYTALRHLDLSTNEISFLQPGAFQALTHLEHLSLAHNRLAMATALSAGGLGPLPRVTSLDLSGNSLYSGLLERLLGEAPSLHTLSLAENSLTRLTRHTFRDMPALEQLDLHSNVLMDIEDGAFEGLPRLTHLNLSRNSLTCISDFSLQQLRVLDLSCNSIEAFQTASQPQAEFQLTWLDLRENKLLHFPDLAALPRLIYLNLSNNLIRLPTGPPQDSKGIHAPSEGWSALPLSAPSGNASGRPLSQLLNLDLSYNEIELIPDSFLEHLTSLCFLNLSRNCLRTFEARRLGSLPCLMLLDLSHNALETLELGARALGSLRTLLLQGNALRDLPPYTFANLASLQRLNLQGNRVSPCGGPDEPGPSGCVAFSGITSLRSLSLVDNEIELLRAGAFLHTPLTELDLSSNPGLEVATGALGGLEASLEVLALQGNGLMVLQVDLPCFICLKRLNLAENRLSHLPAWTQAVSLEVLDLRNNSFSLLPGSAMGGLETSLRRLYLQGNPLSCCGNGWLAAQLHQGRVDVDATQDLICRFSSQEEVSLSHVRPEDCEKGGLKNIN
T1 sequence (P01137 30-390 limits assumed, chain 2 of 2): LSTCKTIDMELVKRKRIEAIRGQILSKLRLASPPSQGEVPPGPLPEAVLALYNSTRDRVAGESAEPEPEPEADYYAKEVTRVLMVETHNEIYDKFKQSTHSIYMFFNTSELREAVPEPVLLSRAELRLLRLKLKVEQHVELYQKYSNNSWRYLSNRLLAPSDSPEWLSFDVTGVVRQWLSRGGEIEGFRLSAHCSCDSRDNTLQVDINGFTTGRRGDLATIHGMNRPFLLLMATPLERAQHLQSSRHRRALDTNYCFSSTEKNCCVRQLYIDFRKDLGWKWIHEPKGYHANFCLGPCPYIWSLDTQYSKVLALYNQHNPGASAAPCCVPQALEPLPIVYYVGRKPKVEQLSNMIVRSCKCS
Assay protocol: Octet BLI, Table 10 (repeats Table 9)
pKd: −log10 of the molar value.
Parameter: pKd

{"columns": ["Binder", "Measured value"],
 "data": [
  ["SR-AB45 (antibody, IgG1, V domains shown, Cycle 3, lineage SR-AB23) VH: QVQLVESGGGVVQPGRSLRLSCAASGFTFRSYVMHWVRQAPGKGLEWVAVISHEGSLKYYADSVKGRFTISRDNSKNTLYLQMNSLRAEDTAVYYCARPRIAARRGGFGYWGQGTLVTVSS VL: NFMLTQPHSVSESPGKTVTISCTRSSGAIDDNYVQWYQQRPGSSPTTVIYEDFQRPSGVPDRFSGSIDSSSNSASLTISGLKTEDEADYYCQSYDDDLQGVVFGGGTKLTVL", 6.71],
  ["SR-AB34 (antibody, IgG1, V domains shown, Cycle 3, lineage SR-AB22) VH: QVQLVESGGGVVQPGRSLRLSCAASGFTFRSYVMHWVRQAPGKGLEWVAVISHEGSLKYYADSVKGRFTISRDNSKNTLYLQMNSLRAEDTAVYYCAVPRIAARRGGFGYWGQGTLVTVSS VL: NFMLTQPHSVSESPGKTVTISCTRSSGNIDNNYVQWYQQRPGSSPTTVIYEDNQRPSGVPDRFSGSIDSSSNSASLTISGLKTEDEADYYCQSYDYDAQGVVFGGGTKLTVL", 7.13],
  ["SR-AB38 (antibody, IgG1, V domains shown, Cycle 3, lineage SR-AB22) VH: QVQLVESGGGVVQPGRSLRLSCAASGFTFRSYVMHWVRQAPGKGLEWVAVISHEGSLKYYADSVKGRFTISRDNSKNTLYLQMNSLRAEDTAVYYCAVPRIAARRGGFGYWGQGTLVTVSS VL: NFMLTQPHSVSESPGKTVTISCTRSSGSIDNNYVQWYQQRPGSSPTTVIYEDFIRPSGVPDRFSGSIDSSSNSASLTISGLKTEDEADYYCQSYDDDLQGVVFGGGTKLTVL", 8.07],
  ["SR-AB39 (antibody, IgG1, V domains shown, Cycle 3, lineage SR-AB22) VH: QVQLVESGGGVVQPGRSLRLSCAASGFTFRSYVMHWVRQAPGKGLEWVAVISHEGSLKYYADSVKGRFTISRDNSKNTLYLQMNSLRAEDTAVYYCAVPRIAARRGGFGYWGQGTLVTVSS VL: NFMLTQPHSVSESPGKTVTISCTRSSGLIDDNYVQWYQQRPGSSPTTVIYEDAQRPSGVPDRFSGSIDSSSNSASLTISGLKTEDEADYYCQSYDHDEQGVVFGGGTKLTVL", 6.41]
]}

The reported measurements were obtained from patent US20220064276A1.
